These entries and their values trace back to paper PMC3402509.

Test: Dasatinib pharmacokinetic studies in plasma
Type: in vivo, patients
Conditions: human, plasma, po
valueType: half-life

[[record]]
smilesinput = "Cc1nc(Nc2ncc(C(=O)Nc3c(C)cccc3Cl)s2)cc(N2CCN(CCO)CC2)n1"
assayresult = "5 to 6 h"


====

Experiment: Dasatinib pharmacokinetic studies in plasma
Assay type: in vivo, patients
Details: human, plasma, po, 150 mg, Tmax Med (Min, Max), 150 mg oral, Day 0 (alone), N=18
valueType: Tmax

[[record]]
smilesinput = "Cc1nc(Nc2ncc(C(=O)Nc3c(C)cccc3Cl)s2)cc(N2CCN(CCO)CC2)n1"
valuetype = "Tmax"
assayresult = "1.5 h"


====

Test: Dasatinib pharmacokinetic studies in plasma
Type: in vivo, patients
Conditions: human, plasma, po, 200 mg, Tmax Med (Min, Max), 200 mg oral, Day 0 (alone), N=3
valueType: Tmax (h)

[[record]]
compound = "Cc1nc(Nc2ncc(C(=O)Nc3c(C)cccc3Cl)s2)cc(N2CCN(CCO)CC2)n1 [dasatinib]"
valuetype = "Tmax"
assayresult = 1


====

Test: Dasatinib pharmacokinetic studies in plasma
Type: in vivo, patients
Conditions: human, plasma, po, 150 mg, Cmax Geomean (%CV), 150 mg oral, Day 0 (alone), N=18
valueType: Cmax (ng/mL)

[[record]]
smilesinput = "Cc1nc(Nc2ncc(C(=O)Nc3c(C)cccc3Cl)s2)cc(N2CCN(CCO)CC2)n1"
valuetype = "Cmax"
assayresult = 144


====

Experiment: Dasatinib pharmacokinetic studies in plasma
Type: in vivo, patients
Settings: human, plasma, po, 100 mg, Cmax Geomean (%CV), 100 mg oral, Day 0 (alone), N=3
valueType: Cmax (ng/mL)

[[record]]
smilesinput = "Cc1nc(Nc2ncc(C(=O)Nc3c(C)cccc3Cl)s2)cc(N2CCN(CCO)CC2)n1"
unitabbrev = "ng/mL"
assayresult = 101


====

Assay: Dasatinib pharmacokinetic studies in plasma
Assay type: in vivo, patients
Details: human, plasma, po, Tmax, text summary over dose levels
valueType: Tmax

[[record]]
compound = "Cc1nc(Nc2ncc(C(=O)Nc3c(C)cccc3Cl)s2)cc(N2CCN(CCO)CC2)n1 [dasatinib]"
assayresult = "1 to 2 h"

